Test: Caspase-3/7 induction in HepG2 cells by small molecules, qHTS cell viability counter screen (AID 1346981); note: nearly all actives have a fitted effect of over 30% in size
Settings: CellTiter-Fluor fluorescence, 17 h; series mostly up to 92.4 µM
Inconclusive results are not listed. Activity calls are given as the source filed them. Calls come from the whole dose curve; as a rule, active = well fitted cell-killing curve with a large enough effect in the repeat runs; inconclusive = weak or mixed curves, or effect the other way; inactive = flat fitted curve, though single readings scatter.
Possible outcomes: active, inactive

>>> cat("O=C(Cn1ccnc1[N+](=O)[O-])NCCO")
"inactive"
>>> cat("CC(C)(C)CC(=O)OCC(=O)[C@@]1(O)CC[C@H]2[C@@H]3CCC4=CC(=O)C=C[C@]4(C)[C@H]3[C@@H](O)C[C@@]21C")
"inactive"
>>> cat("COc1cc(C(=O)NCCCCCC(=O)O)cc(OC)c1OC")
"inactive"
>>> cat("COc1cc(C(=O)NC2CCN(C)CC2)ccc1Nc1ncc2c(n1)N(C1CCCC1)CC(F)(F)C(=O)N2C")
"active"
>>> cat("CS(=O)(=O)c1ccc(-c2cn3ccccc3n2)cc1")
"inactive"
>>> cat("C[C@@H](CN(C)C)CN1c2ccccc2Sc2ccccc21")
"inactive"
>>> cat("CNC(=O)c1cnn(-c2nc(N)c3ncn([C@@H]4O[C@H](CO)[C@@H](O)[C@H]4O)c3n2)c1")
"inactive"
>>> cat("CC(=O)OCC(=O)NCCCOc1cccc(CN2CCCCC2)c1")
"inactive"
>>> cat("O=Cc1c2ccccc2c(Cl)c2ccccc12")
"inactive"
>>> cat("CC(C)COCC(CN(Cc1ccccc1)c1ccccc1)N1CCCC1 (stereo unspecified)")
"active"
>>> cat("CC(C)(c1ccccc1)c1ccccc1")
"inactive"
>>> cat("CCCCN(CCN(CCCC)C(=O)N1CCOCC1)C(=O)N1CCOCC1")
"inactive"
>>> cat("C=C(C)C(=O)OCCCCCCCCCCCCC")
"inactive"
>>> cat("Cc1cc(C)cc(N)c1")
"inactive"
>>> cat("CC(O)c1ccccc1 (stereo unspecified)")
"inactive"
>>> cat("CC/C=C1/OC(=O)c2ccccc21")
"inactive"
>>> cat("CC(C)=CC(=O)C=C(C)C")
"inactive"
>>> cat("CN1CC(=O)N2[C@H](c3ccc4c(c3)OCO4)c3[nH]c4ccccc4c3C[C@@H]2C1=O")
"inactive"
>>> cat("CC(CCC(=O)O)C(=O)O (stereo unspecified)")
"inactive"
>>> cat("CCC=CC#N")
"inactive"
>>> cat("CC(CN(C)C)C(C)(O)Cc1ccc(Cl)cc1 (stereo unspecified)")
"inactive"
>>> cat("C[C@]12CC[C@@H]3c4ccc(O)cc4CC[C@H]3[C@@H]1CC[C@@H]2OC(=O)CCC1CCCC1")
"inactive"
>>> cat("Oc1cccc(Nc2ccccc2)c1")
"inactive"
>>> cat("Cc1cc(O)c(C)c(C)c1O")
"inactive"
>>> cat("Nc1ccc(N=Nc2ccccc2)c(N)c1")
"active"
>>> cat("OC1(c2ccccc2)CCNCC1")
"inactive"

* * *

Experiment: qHTS assay to identify small molecule agonists of the AP-1 signaling pathway (AID 1159526); note: potency is the fitted concentration of half-maximal effect
Details: ME-180 (cervical carcinoma) AP-1-bla reporter, beta-lactamase FRET ratio, 5 h; series mostly up to 76.8 µM
Results filed as inconclusive are left out. Calls of active or inactive are those of the source. Calls follow the shape of the full dose curve.
metric: Potency

>>> result("C=C(C)C(=O)OCCOCCOC(=O)C(=C)C")
"inactive"
>>> result("C=C1c2cccc(O)c2C(O)=C2C(=O)[C@]3(O)C(O)=C(C(N)=O)C(=O)[C@@H](N(C)C)[C@@H]3[C@@H](O)[C@H]12")
"inactive"
>>> result("CC(C)c1nc(CN(C)C(=O)N[C@H](C(=O)N[C@@H](Cc2ccccc2)C[C@H](O)[C@H](Cc2ccccc2)NC(=O)OCc2cncs2)C(C)C)cs1")
"inactive"
>>> result("CC(C)C=O")
"inactive"
>>> result("CCc1ccccc1")
"inactive"
>>> result("CC1=C(Br)C(=O)C(Br)=C/C1=C(/c1ccccc1S(=O)(=O)O)c1cc(Br)c(O)c(Br)c1C")
"inactive"
>>> result("C(=C\\c1ccccc1)/c1ccccc1")
"inactive"
>>> result("O=C1c2ccccc2C(=O)N1CCc1noc(-c2ccc(CN3CCCCCC3)s2)n1")
"inactive"
>>> result("Nc1cccc2c1CN(C1CCC(=O)NC1=O)C2=O (centres undefined)")
"inactive"
>>> result("C=COCC(C)C")
"inactive"
>>> result("CC(=O)Nc1cc(S(=O)(=O)O)cc2cc(S(=O)(=O)O)c(N=Nc3ccccc3)c(O)c12")
"inactive"
>>> result("CCC(=O)OC")
"inactive"
>>> result("CC[N+](CC)(CCNC(=O)C(=O)NCC[N+](CC)(CC)Cc1ccccc1Cl)Cc1ccccc1Cl")
"inactive"
>>> result("C=C(C)C(=O)OCCCCCCCCCCCCC")
"inactive"
>>> result("CN1CCCC(CC2c3ccccc3Sc3ccccc32)C1 (centres undefined)")
"16.9 µM (active)"
>>> result("N#[N+]c1ccc2c(S(=O)(=O)[O-])cccc2c1O")
"inactive"
>>> result("CCCC(=O)C(=O)O")
"inactive"
>>> result("CCOC(=O)C1=C(C)NC(C)=C(C(=O)OC)C1c1cccc(Cl)c1Cl (centres undefined)")
"inactive"
>>> result("CO[C@]1(NC(=O)CSC(F)F)C(=O)N2C(C(=O)O)=C(CSc3nnnn3CCO)CO[C@H]21")
"inactive"
>>> result("CCC1NC(=O)c2cc(S(N)(=O)=O)c(Cl)cc2N1 (centres undefined)")
"inactive"
>>> result("CCC(C)(C)OC")
"inactive"
>>> result("OC1(c2ccccc2)CCNCC1")
"inactive"
>>> result("NC(=O)c1ccncc1")
"inactive"
>>> result("CC(=O)NC1(c2cccc(F)c2)CCN(CC[C@@]2(c3ccc(Cl)c(Cl)c3)CN(c3ccccc3)C(=O)CO2)CC1")
"inactive"
